Experiment: API thermodynamic solubility
Type: physicochemical
Conditions: p-dioxane, organic solvent or mixture, thermodynamic from solid
Property name: solubility thermodynamic (µg/mL)
Give bare numbers, in µg/mL.

Look up solubility thermodynamic for this molecule: CC(C)n1c(=O)cc(N[C@@H](C)c2ccccc2)[nH]c1=O [mavacamten]
1200

* * *

Assay: Solubility estimates at ambient temperature
Format: physicochemical
Details: organic solvent or mixture, thermodynamic from solid, DMF:EtOAc (80:20), Form A (Lot 2-4), read-out: Solubility (estimate)
Property name: solubility

Look up solubility for this molecule: CC(C)n1c(=O)cc(N[C@@H](C)c2ccccc2)[nH]c1=O
~27 mg/mL
